# SUBJECT_OF_TEST: LK35.2-hPD-L1 cells / PE-labeled PD-1-Ig (Homo sapiens)
# Construct: expressed in transfected cells; host or cells: LK35.2 mouse B cell line
# Sequence (Q9NZQ7 19-290): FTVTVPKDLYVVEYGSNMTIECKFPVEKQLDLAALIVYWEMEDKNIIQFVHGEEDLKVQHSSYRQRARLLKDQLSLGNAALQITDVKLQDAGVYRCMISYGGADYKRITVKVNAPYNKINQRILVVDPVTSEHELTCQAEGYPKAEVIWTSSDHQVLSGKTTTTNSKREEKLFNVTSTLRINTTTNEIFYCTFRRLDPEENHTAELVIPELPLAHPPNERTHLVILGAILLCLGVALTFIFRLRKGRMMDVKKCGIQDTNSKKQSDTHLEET
# METHOD_DESCRIPTION: LK35.2-hPD-L1 cell binding high-content screening assay
# Format: cell-based
# MEASUREMENT_CONDITIONS: cell binding assay, cell line not given; cluster symbol; read-out: CBA IC50 cluster
Positions of bridges follow the written chain, without caps; N, C: chain ends. Non-standard residues stand in square brackets, D forms with d. Residues, ends and D or L forms follow the SMILES beside them. Phe(4-CH2NH2) = NCc1ccc(C[C@H](N)C(=O)O)cc1; NMeF = CN[C@@H](Cc1ccccc1)C(=O)O; NMeNle = CCCC[C@H](NC)C(=O)O; Sar = CNCC(=O)O
ASSAY_READOUT: IC50

Entry CCCC[C@H]1C(=O)N(C)CC(=O)N[C@@H](CC(=O)O)C(=O)N[C@@H](C(C)C)C(=O)N(C)[C@@H](Cc2ccccc2)C(=O)N[C@@H](Cc2ccc(CN)cc2)C(=O)N(C)CC(=O)N[C@@H](Cc2c[nH]c3ccccc23)C(=O)N[C@@H](Cc2ccc(O)cc2)C(=O)N[C@@H](CC(C)C)C(=O)N[C@H](C(=O)NCC(N)=O)CSCC(=O)N[C@@H](Cc2ccccc2)C(=O)N(C)[C@@H](Cc2ccccc2)C(=O)N1C [Example 3524] ({CH2CO}-F[NMeF][NMeNle][Sar]DV[NMeF][Phe(4-CH2NH2)][Sar]WYLCG-NH2; thioether N-13) , IC50 reported as 0.158 to 4.71 nM
